system: NAMPT (Homo sapiens (Human))
procedure.text: Tm shift assay (thermal melting, SYPRO Orange)
Type: binding
condition.context: compound 100 μM; shift vs protein without ligand; mean of 3 independent repeats; read-out: NAMPT Tm shift
observation.type: ΔTm at 100 µM (°C)

# smiles.representation, measurement.unit, endpoint.result
rows = [
    ("O=C(NCc1cccc(-c2ccc3cc(S(=O)(=O)O)cc(S(=O)(=O)O)c3c2)c1)Nc1ccc(S(=O)(=O)N2CCCCC2)cc1", "°C", 10.8),
    ("O=C(NCc1ccc(F)c(-c2ccc3cc(S(=O)(=O)O)cc(S(=O)(=O)O)c3c2)c1)Nc1ccc(S(=O)(=O)N2CCCCC2)cc1", "°C", 10.3),
    ("O=C(/C=C/c1ccc(F)c(-c2ccc3cc(S(=O)(=O)O)cc(S(=O)(=O)O)c3c2)c1)NCCCCC1CCN(C(=O)c2ccccc2)CC1", "°C", 9.1),
]

----------
system: NAMPT (Homo sapiens (Human), UniProt P43490)
Sequence (P43490 whole entry, species assumed): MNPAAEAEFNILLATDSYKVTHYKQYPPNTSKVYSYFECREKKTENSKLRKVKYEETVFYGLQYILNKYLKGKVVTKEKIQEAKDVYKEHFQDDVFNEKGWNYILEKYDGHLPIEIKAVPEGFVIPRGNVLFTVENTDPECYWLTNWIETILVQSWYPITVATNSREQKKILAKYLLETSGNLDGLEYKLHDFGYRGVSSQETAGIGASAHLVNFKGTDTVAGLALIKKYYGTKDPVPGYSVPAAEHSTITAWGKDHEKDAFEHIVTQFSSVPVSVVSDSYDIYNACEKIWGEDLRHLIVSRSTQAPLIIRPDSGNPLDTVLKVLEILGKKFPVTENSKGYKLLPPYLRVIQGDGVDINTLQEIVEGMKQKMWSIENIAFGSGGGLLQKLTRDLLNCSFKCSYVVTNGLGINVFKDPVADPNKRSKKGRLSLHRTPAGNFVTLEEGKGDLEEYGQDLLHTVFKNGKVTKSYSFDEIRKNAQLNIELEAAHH
procedure.text: Tm shift assay (thermal melting, SYPRO Orange)
Format: binding
condition.context: compound 100 μM; shift vs protein without ligand; mean of 3 independent repeats; read-out: NAMPT Tm shift
observation.type: ΔTm at 100 µM (°C)

1 = O=C(NC[C@@H]1CCOC1)c1ccc(NC(=O)N2Cc3ccc(-c4ccc5cc(S(=O)(=O)O)cc(SOOO)c5c4)cc3C2)cc1
2 = COc1ccc(CNC(=O)Nc2ccc(S(=O)(=O)N3CCCCC3)cc2)cc1-c1ccc2cc(S(=O)(=O)O)cc(S(=O)(=O)O)c2c1
3 = O=C(NCc1ccc(S(=O)(=O)N2CCCCC2)cc1)c1cc2cc(-c3ccc4cc(S(=O)(=O)O)cc(S(=O)(=O)O)c4c3)ccc2[nH]1
Exam item: Put the items above in order of decreasing ΔTm at 100 µM. Hello, could you send the labels back in the order asked? Thank you.
Marked response: 1, 2, 3
